Assay: qHTS assay for identifying genotoxic compounds that show differential cytotoxicity against isogenic chicken DT40 cell lines with known DNA damage response pathways - Rad54/Ku70 mutant cell line (AID 743015); further: nearly all actives have a fitted effect of over 60% in size; further: potency means the concentration at half of the fitted maximal effect
Settings: DT40 Rad54/Ku70 mutant viability, CellTiter-Glo, 40 h; series mostly up to 66.8 µM
Records with an inconclusive call do not appear. Calls of active or inactive are those of the source. The call rests on the fitted dose curve; in most records, active means well fitted cell-killing curve with a large enough effect in the repeat runs; inconclusive means weak or mixed curves; inactive means no such curve, though single readings can be large or run the other way.
valueType: Potency

compound	recordedMeasurement
CC(=O)Oc1cc(C)c(OC(C)=O)c2ccccc12	23.7 µM (active)
C=C(NC(=O)C(=C)NC(=O)c1csc(C2=N[C@@H]3c4csc(n4)[C@H]4NC(=O)c5csc(n5)[C@H]([C@](C)(O)[C@@H](C)O)NC(=O)[C@H]5CSC(=N5)C(=CC)NC(=O)C([C@@H](C)O)NC(=O)c5csc(n5)[C@]3(CC2)NC(=O)[C@H](C)NC(=O)C(=C)NC(=O)[C@H](C)NC(=O)C([C@@H](C)CC)NC2C=Cc3c([C@H](C)O)cc(nc3C2O)C(=O)O[C@@H]4C)n1)C(N)=O (stereo not given in full)	4.03 µM (active)
COc1ccc2c(c1)OC(C)(C)C(c1ccccc1)C2c1ccc(OCCN2CCCC2)cc1 (stereo not given)	5.96 µM (active)
O=C(O)c1cc(N=Nc2ccc(O)c(C(=O)O)c2)ccc1O	inactive

Next compound, Potency to be filled in.
stdin: Please report Potency for the following compound: "Cc1cccc(C)c1Nc1ncccc1C(=O)O"
stdout: inactive

----------
Test: qHTS assay to identify small molecule antagonists of the thyroid receptor (TR) signaling pathway (AID 743065); further: nearly all actives have a fitted effect of over 55% in size
Details: GH3.TRE-Luc, T3-stimulated luciferase inhibition, 23.5 h; series mostly up to 70.3 µM
Records with an inconclusive call do not appear. The source made the active and inactive calls. Calls come from the whole dose curve; as a rule, active = well fitted inhibition curve with a large enough effect in the repeat runs; inconclusive = weak or mixed curves; inactive = no such curve, though single readings can be large or run the other way.
Permitted responses: Yes for active, No for inactive

# example entries with known answers
compound	label
Cc1ccc(/C(=C\CN2CCCC2)c2cccc(/C=C/C(=O)O)n2)cc1	No
O=C1C(=O)c2ncccc2-c2cccnc21	Yes
CC(CN(C)C)CN1c2ccccc2Sc2ccc(C(F)(F)F)cc21 (stereo not drawn)	Yes

stdin: GET /call?item= "CC(=O)N[C@@H](CC(=O)N[C@@H](CCC(=O)O)C(=O)O)C(=O)O" returns the recorded outcome of this test.
stdout: No

stdin: GET /call?item= CN(C(=O)CO)c1c(I)c(C(=O)NCC(O)CO)c(I)c(C(=O)NCC(O)CO)c1I (stereo not drawn) returns the recorded outcome of this test.
stdout: No

----------
Assay: qHTS assay to identify small molecule antagonists of the thyroid receptor (TR) signaling pathway (AID 743065); further: nearly all actives have a fitted effect of over 55% in size
Conditions: GH3.TRE-Luc, T3-stimulated luciferase inhibition, 23.5 h; series mostly up to 70.3 µM
Inconclusive results are not listed. Activity calls are given as the source filed them. Calls follow the shape of the dose curve; as a rule, active = well fitted inhibition curve with a large enough effect in the repeat runs; inconclusive = weak or mixed curves; inactive = no such curve, though single readings can be large or run the other way.
Permitted responses: active, inactive

# example entries with known answers
compound	label
CO[C@@H]1[C@@H](O[C@@H]2O[C@H](C)[C@@H](O[C@H]3C[C@@](C)(O)[C@@H](OC(=O)CC(C)C)[C@H](C)O3)[C@H](N(C)C)[C@H]2O)[C@@H](CC=O)C[C@@H](C)[C@@H](O)/C=C/C=C/C[C@@H](C)OC(=O)C[C@H]1O	inactive
CC(=O)O[C@]1(C(C)=O)CC[C@H]2[C@@H]3CCC4=CC(=O)CC[C@]4(C)[C@@]3(F)[C@@H](O)C[C@@]21C	inactive
CC1(C)[C@@H]2CC[C@@]1(C)[C@H](OC(=O)CSC#N)C2	inactive

stdin: GET /call?item= "O=C(NOC[C@H](O)CO)c1ccc(F)c(F)c1Nc1ccc(I)cc1F" returns the recorded outcome of this test.
stdout: inactive

stdin: GET /call?item= CCCCC(O)c1ccccc1 (stereo unspecified) returns the recorded outcome of this test.
stdout: inactive

stdin: GET /call?item= "CCOC(=O)O[C@]1(C(=O)COC(=O)CC)CC[C@H]2[C@@H]3CCC4=CC(=O)C=C[C@]4(C)[C@H]3[C@@H](O)C[C@@]21C" returns the recorded outcome of this test.
stdout: inactive

----------
Biological target: Estrogen receptor (Homo sapiens) (UniProt P03372)
Sequence (P03372 whole entry, looked up): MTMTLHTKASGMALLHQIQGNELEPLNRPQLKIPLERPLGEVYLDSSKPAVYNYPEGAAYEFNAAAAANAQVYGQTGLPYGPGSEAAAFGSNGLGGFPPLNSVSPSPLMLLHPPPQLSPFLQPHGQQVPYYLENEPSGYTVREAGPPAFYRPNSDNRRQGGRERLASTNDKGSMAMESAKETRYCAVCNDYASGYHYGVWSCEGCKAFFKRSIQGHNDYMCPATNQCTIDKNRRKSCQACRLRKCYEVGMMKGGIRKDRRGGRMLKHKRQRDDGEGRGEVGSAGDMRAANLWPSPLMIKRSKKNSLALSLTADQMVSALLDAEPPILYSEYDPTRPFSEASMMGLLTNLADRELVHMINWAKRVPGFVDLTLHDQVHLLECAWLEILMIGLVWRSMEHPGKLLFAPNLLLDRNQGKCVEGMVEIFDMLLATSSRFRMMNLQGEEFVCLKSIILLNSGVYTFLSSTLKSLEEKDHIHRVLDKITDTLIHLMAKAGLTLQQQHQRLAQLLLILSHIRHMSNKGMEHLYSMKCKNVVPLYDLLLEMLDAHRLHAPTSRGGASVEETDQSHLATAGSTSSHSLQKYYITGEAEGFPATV
Experiment: qHTS assay to identify small molecule agonists of the estrogen receptor alpha (ER-alpha) signaling pathway (AID 743075);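 further: HEK293 GripTite cells with ER-alpha and UAS-driven beta-lactamase reporter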
Settings: HEK293 ER-alpha-UAS-bla, beta-lactamase FRET ratio, 18 h; series mostly up to 70.1 µM
Results filed as inconclusive are left out. Active and inactive are the calls of the source. Calls follow the shape of the full dose curve.
Permitted responses: 1.0 for active, 0.0 for inactive

# example entries with known answers
compound	assayedTarget	label
CCN(CC)CCOc1ccc(-c2nc3cc(Cl)ccc3s2)cc1	Estrogen receptor (Homo sapiens) (UniProt P03372)	0.0
CCOc1cc(-c2nccc3cc(OC)c(OC)cc23)cc(OCC)c1OCC	Estrogen receptor (Homo sapiens) (UniProt P03372)	0.0
CCCCCCCCCCCCCCCCCCOP(=O)([O-])OC1CC[N+](C)(C)CC1	Estrogen receptor (Homo sapiens) (UniProt P03372)	0.0

stdin: GET /call?item= "CC[N+](C)(C)Cc1ccccc1Br" returns the recorded outcome of this test.
stdout: 0.0

----------
Assay: qHTS assay to identify small molecule antagonists of the glucocorticoid receptor (GR) signaling pathway - cell viability counter screen (AID 720693); further: nearly all actives have a fitted effect of over 55% in size; further: potency means the concentration at half of the fitted maximal effect
Conditions: GR-bla HeLa viability, CellTiter-Glo luminescence, 18 h, with 5 nM dexamethasone present; series mostly up to 58.5 µM
From the text: National Center for Advancing Translational Sciences [NCATS] NIH Chemical Genomics Center [NCGC] U.S. Environmental Protection Agency [EPA] National Institutes of Environmental Health Sciences [NIEHS] National Toxicology Program [NTP] U.S. Food and Drug Administration [FDA] The Glucocorticoid receptor (GR) is one of the members of the nuclear receptor family of ligand-dependent transcription factors. […] The activation of the reporter gene under culture conditions can be detected by fluorescence intensity. […]
Records with an inconclusive call do not appear. Activity calls are given as the source filed them. Calls come from the whole dose curve; as a rule, active = well fitted cell-killing curve with a large enough effect in the repeat runs; inconclusive = weak or mixed curves, or effect the other way; inactive = no such curve, though single readings can be large or run the other way.

compound	Potency
[O]=[Bi][O][Bi]=[O]	inactive
C=C1CC2C3CCC4=CC(=O)C=C[C@]4(C)[C@@]3(F)[C@@H](O)C[C@]2(C)[C@@]1(O)C(=O)COC(C)=O (stereo partly drawn)	inactive
C=C1CC[C@H](O)CC1=C/C=C1\CCC[C@]2(C)[C@@H]([C@H](C)CC[C@@H](O)C(C)(C)O)CC[C@@H]12	21.3 µM (active)

----------
Test: qHTS assay to test for compound auto fluorescence at 590 nm (red) in HepG2 cell free culture (AID 720684)
Details: cell-free medium autofluorescence, red 540/590 nm; series mostly up to 46 µM
The source made the active and inactive calls. Calls come from the whole dose curve; as a rule, active = well fitted curve in the direction sought with a large enough effect in the repeat runs; inconclusive = weak or mixed curves; inactive = flat fitted curve, though single readings scatter.
Permitted responses: active, inactive

# example entries with known answers
compound	label
CCCCCCCCCCCCCCCCOCCOCCOCCOCCOCCOCCOCCOCCOCCOCCOCCOCCOCCOCCOCCOCCOCCOCCOCCOCCO	inactive
COc1ccc(/C=C/C(=O)OCCC(C)C)cc1	inactive
CCC(Cc1c(I)cc(I)c(O)c1I)C(=O)O (configuration not stated)	inactive
CC(Oc1ccccc1)C(=O)N[C@@H]1C(=O)N2[C@@H]1SC(C)(C)[C@@H]2C(=O)O (some centres not stated)	inactive
O=C(O)[C@H]1/C(=C/CO)O[C@@H]2CC(=O)N21	inactive
[O]=[Bi][O]C(=O)[O][Bi]=[O]	inactive
O=C1CSC2(CCN(CCCN3c4ccccc4Sc4ccc(Cl)cc43)CC2)N1	inactive
COc1cc2[nH]c(C)c(CCN3CCN(c4ccccc4)CC3)c2cc1OC	inactive
Clc1cc(Cl)c(OCC#CI)cc1Cl	inactive
COc1c(O[C@@H]2O[C@H](CO)[C@@H](O)[C@H](O)[C@H]2O)cc2c(c1OC)-c1ccc(SC)c(=O)cc1[C@@H](NC(C)=O)CC2	inactive

stdin: GET /call?item= COc1cc(S(C)=O)ccc1-c1nc2ncccc2[nH]1 (configuration not stated) returns the recorded outcome of this test.
stdout: inactive

stdin: GET /call?item= "N#Cc1ccc2c(c1)N(CCCN1CCC(O)CC1)c1ccccc1S2" returns the recorded outcome of this test.
stdout: inactive

stdin: GET /call?item= "O=C(O)c1c(Cl)c(Cl)c(Cl)c(Cl)c1-c1c2cc(I)c(=O)c(I)c-2oc2c(I)c(O)c(I)cc12" returns the recorded outcome of this test.
stdout: active

stdin: GET /call?item= "CC(C)(C)NC(=O)[C@H]1CC[C@H]2[C@@H]3CC=C4C=C(C(=O)O)CC[C@]4(C)[C@H]3CC[C@]12C" returns the recorded outcome of this test.
stdout: inactive

stdin: GET /call?item= "CC(/C=C/C=C(\C)C(=O)O[C@@H]1O[C@H](CO[C@@H]2O[C@H](CO)[C@@H](O)[C@H](O)[C@H]2O)[C@@H](O)[C@H](O)[C@H]1O)=C\C=C\C=C(C)\C=C\C=C(/C)C(=O)O[C@@H]1O[C@H](CO[C@@H]2O[C@H](CO)[C@@H](O)[C@H](O)[C@H]2O)[C@@H](O)[C@H](O)[C@H]1O" returns the recorded outcome of this test.
stdout: inactive

stdin: GET /call?item= "CC(=O)O[C@]1(C(C)=O)CC[C@H]2[C@@H]3CCC4=CC(=O)CC[C@]4(C)[C@@]3(F)[C@@H](O)C[C@@]21C" returns the recorded outcome of this test.
stdout: inactive

stdin: GET /call?item= "O=C(CCCN1CCC(C(=O)c2ccc(F)cc2)CC1)c1ccc(F)cc1" returns the recorded outcome of this test.
stdout: inactive
